- system under test: Fibroblast growth factor receptor 2 (Homo sapiens)
- run conditions: Compound concentration 20.0 uM
- Description: Thermal Shift Assay. Domain: start/stop: T457-E768
Residues, ends and D or L forms follow the SMILES beside them. *: point of attachment. CH2Cl = ClC*
measure name: ΔTm

- O=C(NNc1ccccn1)c1ccccn1: 0.02 °C
- OC[C@H]1O[C@@H](c2ccc(Cl)c(Cc3ccc(OCCOC4CC4)cc3)c2)[C@H](O)[C@@H](O)[C@@H]1O: -0.3 °C
- CCCN1CCN(c2ccc(C(=O)NC3(C(=O)NCC#N)CCCCC3)cc2)CC1: 0.76 °C
- O=C1c2ccccc2C(=O)c2oc(-c3cccnc3)nc21: -0.95 °C
- CN(CCCN1c2ccccc2CCc2ccccc21)CC(=O)c1ccc(Cl)cc1: 0.53 °C
- COc1ccc(-c2ccc3c(c2)COC3=O)n2nc(C3(C(=O)OCC(C)C)CC3)nc12: 0.71 °C
- COc1cc2c(NC3CCN(C4CCCCC4)CC3)nc(N3CCCN(C(C)C)CC3)nc2cc1OCCCN1CCCCC1: 0.34 °C
- COc1cc(Cl)ccc1C1=CN(c2ccc(-c3ccccc3OC)cc2)C2=NCCCN12: -1.01 °C
- CCn1c(=S)[nH]c2cc3c(NCc4ccccc4N4CCC(CO)CC4)ncnc3cc21: -0.06 °C
- CC(=O)N[C@@H](CC(C)C)C(=O)N[C@@H](CCC(=O)O)C(=O)N[C@@H](Cc1cnc[nH]1)C(=O)N[C@@H](CC(=O)O)C(=O)CCl (Ac-LEHD-CH2Cl): 0.65 °C

====

- system under test: Fibroblast growth factor receptor 2 (Homo sapiens) (UniProt P21802)
- Sequence (P21802 22-821 limits assumed): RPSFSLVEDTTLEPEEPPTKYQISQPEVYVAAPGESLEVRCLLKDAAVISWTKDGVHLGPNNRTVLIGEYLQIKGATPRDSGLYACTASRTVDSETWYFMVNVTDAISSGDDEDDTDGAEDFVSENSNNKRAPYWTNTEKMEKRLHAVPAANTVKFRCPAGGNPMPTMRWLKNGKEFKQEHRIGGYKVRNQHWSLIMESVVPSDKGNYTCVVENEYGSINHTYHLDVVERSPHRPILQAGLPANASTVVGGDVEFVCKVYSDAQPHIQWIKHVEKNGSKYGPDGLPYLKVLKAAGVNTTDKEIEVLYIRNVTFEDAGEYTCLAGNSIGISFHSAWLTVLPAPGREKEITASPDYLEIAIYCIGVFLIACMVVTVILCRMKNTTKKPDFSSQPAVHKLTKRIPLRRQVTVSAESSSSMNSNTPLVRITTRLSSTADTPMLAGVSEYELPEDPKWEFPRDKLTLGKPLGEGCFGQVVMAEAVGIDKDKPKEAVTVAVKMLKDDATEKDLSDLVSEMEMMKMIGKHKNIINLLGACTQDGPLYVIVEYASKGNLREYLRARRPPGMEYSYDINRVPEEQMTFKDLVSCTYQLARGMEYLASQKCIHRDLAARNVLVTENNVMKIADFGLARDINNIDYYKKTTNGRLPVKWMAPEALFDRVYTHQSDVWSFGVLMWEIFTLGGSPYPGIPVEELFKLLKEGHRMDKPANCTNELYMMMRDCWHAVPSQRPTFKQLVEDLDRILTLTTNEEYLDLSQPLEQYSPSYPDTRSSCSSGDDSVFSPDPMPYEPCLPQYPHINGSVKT
- run conditions: Compound concentration 20.0 uM
measure name: ΔTm (°C)

- CCCOc1ccc(NC(=O)CN2CCN(C)CC2)cc1-c1nc(CC)c(CC)c(=O)[nH]1: -0.52
- O=C(O)CCNC(=S)NCCCC[C@H](NS(=O)(=O)c1cccc(F)c1)C(=O)N[C@@H](Cc1c[nH]c2ccccc12)C(=O)NC1CCC1: -0.15
- COc1nc(N)nc(Nc2cc(S(N)(=O)=O)ccc2N[C@@H](c2cccc3c2OC(F)(F)O3)c2ncccc2Cl)n1: 1.9
- CS(=O)(=O)N1CCN(C(=O)c2cnc3ccc(F)cc3c2N2CCC(C#N)(c3ccccc3)CC2)CC1: -4.51
- CN1C[C@@H]2[C@H](C1)[C@H]2CN(Cc1ccc(F)c(Cl)c1)C(=O)c1cn(C)cn1: 0.05
- C[C@H](N)C(=O)N1C[C@H](CCCB(O)O)[C@](N)(C(=O)O)C1: 0.25
- Cn1ncnc1[C@H]1C2=c3c(cc(F)cc3=N[C@@H]1c1ccc(F)cc1)C(=O)NN2: 0.09
- CCCSc1nc(N[C@@H]2C[C@H]2c2ccc(F)c(F)c2)c2nnn([C@@H]3C[C@H](OCCO)[C@@H](O)[C@H]3O)c2n1: -0.32
- O=S(=O)(O)c1ccc2cc(/N=N/c3cc(S(=O)(=O)O)c4cccnc4c3O)ccc2c1: -0.08
- CCCCCCNC(=O)n1cc(Cl)c(=O)n(C(=O)OCC(C)C)c1=O: 0.1
- Cc1nn(CC(F)(F)F)cc1Nc1ncc(Br)c(NCc2ccc(S(N)(=O)=O)cc2)n1: 2.95
- CC(=O)N[C@@H](Cc1ccc(O)cc1)C(=O)N[C@H](C(=O)N[C@@H](C)C(=O)N[C@@H](CC(=O)O)C(=O)COC(=O)c1c(C)cccc1C)C(C)C: 0.82

====

Reported ΔTm is given for each of the following molecules.
- system under test: Fibroblast growth factor receptor 2 (Homo sapiens)
- run conditions: Compound concentration 20.0 uM
Residues, ends and D or L forms follow the SMILES beside them. *: point of attachment. CH2Cl = ClC*
measure name: ΔTm (°C)

• Nc1ccccc1NC(=O)c1ccc(CNC(=O)OCc2cccnc2)cc1 = 0.41
• COc1ccc(/C=C/C(=O)NO)c(-c2ccc(-c3ccccc3)cc2)c1 = -5.03
• CC(=O)N[C@@H](Cc1ccccc1)C(=O)N[C@@H](CC(C)C)C(=O)N[C@H](C(=O)N[C@@H](CC(=O)O)C(=O)CCl)[C@@H](C)O (Ac-FLTD-CH2Cl) = 0.77
• O=C(c1cccc(-c2ccc(-c3cn(C(=O)N4CCCCC4c4ccccc4)nn3)cc2)c1)N1CCCCC1 (stereo not drawn) = 2.55
• NC(=O)[C@H]1CCCCc2c1[nH]c1ccc(Cl)cc21 = 1.09
• O=C(Nc1c[nH]nc1C(=O)NC1CCNCC1)c1cc(F)cc(F)c1 = 0.46
• COc1ccc(C(=O)N[C@H](C(=O)N2CCC[C@H]2C(=O)N[C@H](C(=O)C(F)(F)F)C(C)C)C(C)C)cc1 = 0.07
• Cc1cc(Cn2c(=O)n(Cc3cnc(C)s3)c(=O)c3cc(S(=O)(=O)NC4(C)CC4)ccc32)n(C)n1 = 0.47

====

- system under test: Fibroblast growth factor receptor 2 (Homo sapiens)
- run conditions: Compound concentration 20.0 uM
measure name: ΔTm (°C)

• N[C@@H](CC(=O)Nc1ccc(Oc2cc(F)c(F)cc2Br)cc1)C(=O)O = -0.01
• NS(=O)(=O)OC[C@H]1C[C@@H](Nc2ncncc2C(=O)c2ccn(Cc3cccc(Br)c3)n2)C[C@@H]1O = -0.38
• COc1ccccc1S(=O)(=O)Nc1ccc2c(c1)CN(C)C(=O)N2 = -0.59
• O=C(NC1CCC1)c1ccc2nc(-c3cccc(NS(=O)(=O)NCCN4CCCCC4)c3)cn2c1 = -0.11
• COc1cc2c(NC3CCN(C)CC3)nc(N3CCCN(C)CC3)nc2cc1OCCCN(C)C = 0.15
• CC(C)(CNC(=O)c1cccc(-c2noc(C(F)(F)F)n2)c1)c1coc(-c2ccccc2)n1 = 0.16
• CC(C)Oc1ccc(C=O)cc1 = 0.13
• CNC[C@@H](O)COc1ccc(Cl)c(-c2nc(-c3c(C)noc3C)c(C)c(N3CC4(CCN(C(=O)OC)CC4)C3)n2)c1 = 0.49
• CCCCN(Cc1ccc(C(=O)NO)cc1)C(=O)Nc1ccccc1 = -0.44
• N#C[C@@H]1C[C@@H]2C[C@@H]2N1C(=O)[C@@H](N)C12CC3CC(CC(O)(C3)C1)C2 = 0.29
• C[C@H](CN[C@@H](C(=O)Nc1ccc(-c2cnn(C)c2)cn1)c1ccccc1)c1ccc(C#N)cc1 = 0.96
• COc1cccc(-c2nccc3c2CN(c2ccccc2)C3=O)c1 = 0.77
• O=C(O)CCNc1cc(N2CCc3ccccc3CC2)nc(-c2cccnc2)n1 = 0.9
• CNC(=O)Cn1cc(-c2ccc3c(c2)[C@H](F)C[C@]32NC(=O)N(CC(=O)N(Cc3ccc(F)cc3)[C@@H](C)C(F)(F)F)C2=O)cn1 = -0.18

====

- system under test: Fibroblast growth factor receptor 2 (Homo sapiens)
- run conditions: Compound concentration 20.0 uM
Examples of molecules with documented ΔTm follow.
measure name: ΔTm (°C)

- Cc1ncsc1-c1ccc([C@H](C)NC(=O)[C@@H]2C[C@@H](O)CN2C(=O)[C@@H](NC(=O)CNC(=O)c2ccc(F)c(-c3ccc(N4C[C@@H](C)N(C)[C@@H](C)C4)c(NC(=O)c4c[nH]c(=O)cc4C(F)(F)F)c3)c2)C(C)(C)C)cc1: -4.38
- CC(=O)N[C@@H](Cc1ccc(O)cc1)C(=O)N[C@H](C(=O)N[C@@H](C)C(=O)N[C@@H](CC(=O)O)C(=O)CCl)C(C)C: 0.63
- CS(=O)(=O)Nc1ccc(-c2coc3cc(OCc4cccc(C(=O)O)c4)ccc3c2=O)cc1: -0.06
- CC(=O)OCCN1C(=O)c2c(C)nc3ccc(S(=O)(=O)N4CCOCC4)cc3c2C1=O: 0.68
- Cc1cnc(-c2ccccc2C(C)C)nc1NCc1ccc(-n2ccnn2)cc1: -0.47
- O=C(NC[C@H](O)CN1CCc2ccccc2C1)c1cc(NC2COC2)ncn1: 0.37
- N#Cc1nc2c(nc1C#N)-c1ccccc1C2=NOCc1ccccc1: 0.78
- C[C@@H](COCCC(=O)N1CCN(c2ncc(C(F)(F)F)cn2)CC1)Nc1cn[nH]c(=O)c1C(F)(F)F: 0.24
- C[C@H](NC(=O)CCc1nc2ccccc2c(=O)[nH]1)c1ccccc1: 0.69
- CS(=O)(=O)c1ccc(-c2nnc(C=Cc3nnc(-c4ccc(C#N)cc4)o3)n2-c2ccccc2Cl)nc1: 0.13
- CC(=O)O[C@]1(C(C)=O)CC[C@H]2[C@@H]3CCC4=CC(=O)CCC4=C3[C@@H](c3ccc(N(C)C)cc3)C[C@@]21C: -0.06
- Nc1cc2c3c(c1)C(c1ccccc1)=N[C@@H](NC(=O)c1cccnc1)C(=O)N3CC2: 0.08
- CCn1c(=O)c(C)cn(Cc2nnc(-c3ccc(F)c(OC)c3F)s2)c1=O: 0.75
- COC(=O)C1=C(C(=O)OC)[C@@]2([C@@H](Cc3ccc(C)cc3)Nc3ccccc3)C=C[C@@H]1O2: 0.51
- CC1(C)CC[C@]2(C(=O)O)CC[C@]3(C)C(=CC[C@@H]4[C@@]5(C)C=C(O)C(=O)C(C)(C)[C@@H]5CC[C@]43C)[C@@H]2C1: 0
- O=C(NCC(=O)N1CCCCC1)Nc1ccc2nnsc2c1: 0.59
- CN(CCC(Oc1ccc(-c2ccccc2)cc1)c1ccc(F)cc1)CC(=O)O (stereo not given): 0.44
- Cc1cc(OCc2nnc(SC3CCCC3)n2-c2cccnc2)ccc1-c1ccc(S(C)(=O)=O)cc1: -3.4
- CC(C)(OCc1cc(-c2cccc(OC3CC3)c2)n(-c2ccccc2Cl)n1)C(=O)O: -0.52
- CNCc1ccc(-c2cc3cc(F)cc(C(N)=O)c3o2)cc1: 0.56
- CC(C)N(CCCNC(=O)Nc1ccc(C(C)(C)C)cc1)C[C@H]1O[C@@H](n2ccc3c(N)ncnc32)[C@H](O)[C@@H]1O: 0.6
- Cc1n[nH]c(C)c1Cc1sc2c(c1C(=O)N1C[C@H](O)CO1)c(=O)n(C)c(=O)n2CC(C)C: 0.22
- CCOC(=O)NCCCC(=O)NCCc1ccccc1: 0.51
- O=C(O)[C@@H]1CCCN(C(=O)n2cnc(-c3ccc(-c4cnc(N5CCOCC5)nc4)cc3)n2)[C@H]1c1ccccc1: 0.15
- Cn1ncc2c(-c3c(-c4ccc(F)cn4)nn4c3COC(C)(C)C4)ccnc21: 1.01
- CC/C(=C(/c1ccc(/C=C/C(=O)O)cc1)c1ccc2[nH]ncc2c1)c1ccc(F)cc1Cl: -5.4
- CCn1c(=O)c(C)cn(Cc2nnc(-c3ccc(F)c(O)c3F)s2)c1=O: 0.53
- CCC(CC)(NC(=O)C(C)C)C(=O)N[C@@H](CCCNC(=N)N)C(=O)NC1(C(=O)NC(c2ccc(F)cc2)c2ccc(F)cc2)CCCC1: -3.44
- CCN(C(=O)c1cc(F)ccc1Oc1cncnc1N1CC2(CCN(C[C@H]3CC[C@H](NS(=O)(=O)CC)CC3)CC2)C1)C(C)C: 0.21
- COc1ccc(-n2c(SCCCN3C(=O)c4cccc5cccc(c45)C3=O)nnc2-c2ccncc2)cc1: 0.21
